Entry source: PubChem BioAssay (NCI)

System: UO-31 renal
Experiment: NCI-60 one-dose screen, 48 h (100 = growth as untreated, 0 = no growth, -100 = all killed)
Conditions: 10 µM unless noted
The panel holds about 83,000 compounds, 20% with a hit somewhere; the sample as a whole holds those more often. Active and inactive are the calls of the source. The calls were made as follows: active = growth percent below 10; inactive = the rest.
Below, each of the molecules is paired with its reported growth value.

molecule	growth
COc1ccc(CCN2C(=O)C(C)(C)SC2=S)cc1OC	88.9% (inactive)
Cc1ccc2c(c1)c1nc3cc(C)c(C)cc3nc1n2CCN(C)C	-10.4% (active)
COc1cccc(-c2nn(-c3ccccc3)cc2-c2ccnc(NCCCNS(=O)(=O)c3ccccc3)c2)c1	13.8% (inactive)
CN(C)c1ccc(N=C2C=CC(=O)C=C2)cc1	73.7% (inactive)
CN1CCN(CCOc2ccc(-c3cnc4c(-c5ccccc5F)cnn4c3)cc2)CC1	39.1% (inactive)
Clc1ccc2[nH]cc(-c3nc(-c4c[nH]c5ncccc45)cs3)c2c1	22.2% (inactive)
O=[N+]([O-])c1cc(S(=O)(=O)c2ccc(F)c([N+](=O)[O-])c2)ccc1F	86.1% (inactive)
Cc1ccsc1-c1ccc2c(c1)COC2(CCCN(C)C)c1ccc(F)cc1 (centres undefined)	39.3% (inactive)
Cc1cc(N=O)cc(C(C)(C)C)c1O	92.3% (inactive)
Cc1ccc(-c2ccc(/C=C(\C#N)c3nc(-c4ccco4)cs3)o2)cc1	79% (inactive)
Cn1nc(-c2ccccc2)c2c(-c3ccccc3)onc2c1=O	39.6% (inactive)
CC(=O)O[C@H]1CC[C@@]2(C)C(=CC[C@@H]3[C@@H]2CC[C@]2(C)C(=O)N(O)C(=O)C[C@@H]32)C1	97.4% (inactive)
Fc1cccc(-c2[nH]nc3nc(Nc4cccnc4)sc23)c1	46.2% (inactive)
COc1cccc(-c2nn(-c3ccccc3)cc2-c2ccnc(NCCCNS(=O)(=O)c3ccc(Br)cc3)c2)c1	21.6% (inactive)
COc1ccc2c(c1)c(-c1nc(-c3c[nH]c4ncccc34)cs1)cn2CCN	48.5% (inactive)
COc1cc(-c2cc3ncccc3c3nc(OCCN(C)C)c4cccnc4c23)cc(OC)c1OC	-70% (active)
Cc1ccc2oc(=O)cc(-c3sc(N4CCCCC4)nc3-c3ccccc3)c2c1	58% (inactive)
CC1=NN(c2ccc(S(=O)(=O)O)cc2Cl)C(=O)C1	89.2% (inactive)
O=C(/C=C/c1cccc2ccccc12)Nc1ncc(Cc2ccccc2)s1	32.2% (inactive)
O=C1c2cccc3cccc(c23)C(=O)N1CC#Cc1ccc2c3c(cccc13)C(=O)N(CCO)C2=O	57.3% (inactive)
C#CCN=C[C@]12CC[C@@H](C(=C)C)[C@@H]1[C@H]1CC[C@@H]3[C@@]4(C)CCC(=O)C(C)(C)[C@@H]4CC[C@@]3(C)[C@]1(C)CC2	-78.2% (active)
Cn1cc(-c2csc(-c3cn(CCNC(=O)OC(C)(C)C)c4ccc(F)cc34)n2)c2cccnc21	39.7% (inactive)
Cc1ccc(-c2nc3ccc(Cl)cc3c(=O)n2N2C(=O)CSC2c2ccccc2Cl)cc1 (centres undefined)	67.2% (inactive)
COc1cc(/C=N/Nc2ncnc3c2c(C)nn3-c2ccc(F)cc2)ccc1O	64.4% (inactive)
COc1cccc(-c2nn(-c3ccccc3)cc2-c2ccnc(NCCNS(=O)(=O)c3ccc(Cl)cc3)c2)c1	15.8% (inactive)
Cn1cc(-c2csc(-c3cn(CCN)c4ccccc34)n2)c2cccnc21	33.2% (inactive)
COc1cc(-c2cc(-c3nc4ccc(F)cc4[nH]3)[nH]n2)cc(OC)c1OC	26.1% (inactive)
Cc1ccc(-c2nc([P+](c3ccccc3)(c3ccccc3)c3ccccc3)c(N3C[C@H]4C[C@H](C3)c3cccc(=O)n3C4)o2)cc1	83.6% (inactive)
COc1ccc(O)c(-c2cc(-c3ccc(Cl)cc3)c(C#N)c(=O)[nH]2)c1	55% (inactive)
N=C(N)c1ccc(S(N)(=O)=O)cc1	72.6% (inactive)
O=c1[nH]c(=S)[nH]c2nc[nH]c12	62.7% (inactive)
COc1cccc(-c2nn(-c3ccccc3)cc2-c2ccnc(NCCNS(=O)(=O)c3ccc(C(F)(F)F)cc3)c2)c1	11.7% (inactive)
CC(C)(C)c1nc(-c2ccc(O)c(O)c2)cs1	39.5% (inactive)
COC(=O)[C@]12CC[C@@H](C)[C@H](C)[C@@H]1C1=CC[C@@H]3[C@@]4(C)C=C(O)C(=O)C(C)=C4CC[C@@]3(C)[C@]1(C)CC2	34.3% (inactive)
COc1cc(/C=C/c2cc(/C=C/c3ccc(O)c(OC)c3)n(-c3ccc(Cl)cc3)c(=O)n2)ccc1O	64.9% (inactive)
C#Cc1cccc(NC(=O)C2CCCN(C(=O)CCl)C2)c1 (centres undefined)	-56.7% [8.25 µM] (active)
CCCCCCCC(=O)SCC/C=C/[C@@H]1CC(=O)NCc2cccc(n2)CN(Cc2ccc3ccccc3c2)CC(=O)N[C@@H](C(C)C)C(=O)O1	36.4% (inactive)
O=C1C(=O)N(CCCCn2cc(-c3ccccc3)nn2)c2ccccc21	75.3% (inactive)
COc1ccc(/C=C/C(=O)c2ccc([N+](=O)[O-])cc2)cc1	89.9% (inactive)
